System: K-562 leukemia
Assay: NCI-60 one-dose screen, 48 h
Conditions: 10 µM unless noted
This is part of a sample that, as a whole, favours compounds with a hit. Of some 83,000 tested, about 20% had one in any assay. Active and inactive are the calls of the source. How the source made its calls: active means growth percent below 10; inactive means the rest.
Your response should consist of one outcome taken from class 1 for active, class 0 for inactive

1) O=C(CCCCCCNC(=O)c1csc(Br)n1)NO : class 0
2) N#C/C(=C\c1ccc(-c2ccc(Cl)c(Cl)c2)o1)C(=O)Nc1ncc(Cc2ccc(Cl)cc2)s1 : class 0
3) CC(Nc1ncnc2ccc(-c3cnc4cnccn34)cc12)c1ccccc1 (stereo not given) : class 0
4) O=S(=O)(Oc1ccc(-c2cn3ccsc3n2)cc1)c1cccc(C(F)(F)F)c1 : class 0
5) CC(O)c1cccc(/C(N)=N/C(N)=N/c2nc3ccccc3s2)c1 (stereo not given) : class 0
6) O=C(/C=C/c1cc(Cl)ccc1Cl)Nc1ncc(Cc2ccc(Cl)cc2)s1 : class 1
7) Cc1csc(/N=C(N)/N=C(\N)c2cccc(Br)c2)n1 : class 0
8) C#CCN(C)CCCOc1ccc(NCc2ccc(C(=O)NO)cc2)cc1Cl : class 0

Hello, I am checking results. What call was entered for O=c1nc(Nc2ccc([N+](=O)[O-])cc2O)sc2ccccc12 ?
class 0

Hello, I am checking results. What call was entered for CN1CCN(Cc2ccc(NC(=O)c3cncc(C#Cc4cnc5ccc(NCCO)nn45)c3)cc2C(F)(F)F)CC1 ?
class 1

----------
System: SK-MEL-5 melanoma
Assay: NCI-60 one-dose screen, 48 h (100 = growth as untreated, 0 = no growth, -100 = all killed)
Conditions: 10 µM unless noted
About 83,000 compounds went through this panel and 20% of them were active in at least one assay; those are over-represented in the sample as a whole.
experimental endpoint: growth (%)
# unit: % | format: bare number

Query for SK-MEL-5 melanoma: what growth does the record show for CN1CCN(c2ccc(Nc3nc(NCCNS(=O)(=O)c4ccc(Cl)cc4)c4sccc4n3)cc2)CC1 ?
93.6

Query for SK-MEL-5 melanoma: what growth does the record show for Cn1cc(-c2nnc(N)nc2-c2c[nH]c3ccc(Br)cc23)c2cc(Br)ccc21 ?
101

Query for SK-MEL-5 melanoma: what growth does the record show for C/C(=N\NC(=O)/C=C/CC(=O)O)c1nnn(-c2ccc([N+](=O)[O-])cc2)c1C ?
99.2

Query for SK-MEL-5 melanoma: what growth does the record show for CCCC[n+]1ccc(SCC(=O)n2ccc3ccccc32)c2ccccc21 ?
85.8

Query for SK-MEL-5 melanoma: what growth does the record show for CSc1ccc(/C(=N/N=C(N)N)c2ccc(F)cc2)cc1 ?
-11.3

Query for SK-MEL-5 melanoma: what growth does the record show for CCc1cc2c(cc1Cl)nc1c(=O)[nH]c(=O)nc-1n2CCOCC(C)(C)C ?
39.6

Query for SK-MEL-5 melanoma: what growth does the record show for C=C(C)[C@@H]1CC[C@]2(COCCCNCCCN)CC[C@]3(C)[C@H](CC[C@@H]4[C@@]5(C)CC[C@H](O)C(C)(C)[C@@H]5CC[C@]43C)[C@@H]12 ?
-63.5

Query for SK-MEL-5 melanoma: what growth does the record show for O=C1Nc2cc(Cl)ccc2/C1=C\c1ccc(OCc2ccccc2)cc1 ?
97.2

Query for SK-MEL-5 melanoma: what growth does the record show for O=C1CSC(c2cn(-c3ccccc3)nc2-c2ccc(Cl)cc2)N1c1ccccc1 (centres undefined) ?
99.4

Query for SK-MEL-5 melanoma: what growth does the record show for C#Cc1cc(OC)c(C(=O)Nc2ccc(F)cc2C(=O)Nc2cccc(S(=O)(=O)C(F)(F)F)c2)cn1 ?
-49

----------
System: NCI-H322M lung
Test: NCI-60 one-dose screen, 48 h
Details: 10 µM unless noted
This is part of a sample that, as a whole, favours compounds with a hit. Of some 83,000 tested, about 20% had one in any assay. Activity calls are given as the source filed them. Rule for the calls: active = growth percent below 10; inactive = the rest.
Your response should consist of one outcome taken from yes (1) for active, no (0) for inactive

1. COc1cc(OC)cc(-c2cc(-c3c[nH]c4ccccc34)nc(-c3c[nH]c4ccccc34)c2C#N)c1 : no (0)
2. Cc1ccc(-c2csc(N/N=C/c3cccs3)n2)cc1 : no (0)
3. COc1ccc(/C=N/N=C(/c2ccccc2)c2ccc3nc(-c4ccc(Cl)cc4)[nH]c3c2)cc1 : no (0)
4. O=C(/C=C/c1cc(Cl)ccc1Cl)Nc1ncc(Cc2ccc(Cl)cc2)s1 : no (0)
5. COC(=O)c1ccc(NC2=C(Cl)C(=O)c3nc(C)ccc3C2=O)cc1 : no (0)
6. O=c1[nH][nH]c(-c2ccc(F)cc2)c1-c1nc2ccccc2s1 : no (0)

Hello, I am checking results. What call was entered for Oc1[nH]c2ccc(Cl)cc2c1N=Nc1nc(N=Nc2c(O)[nH]c3ccc(Cl)cc23)nc(N2CCCCC2)n1 ?
no (0)

Hello, I am checking results. What call was entered for COc1cc(NC(=O)Nc2cccc(-c3cc(=O)c4c(OC)c(OC)c(OC)cc4o3)c2)cc(OC)c1OC ?
no (0)

Hello, I am checking results. What call was entered for CNc1sc(S(=O)(=O)NC)nc1S(=O)(=O)c1ccc(C)cc1 ?
no (0)

Hello, I am checking results. What call was entered for COc1ccc(C(C)=C(c2ccc(OCCN(C)C)cc2)c2ccc(OCCN(C)C)cc2)cc1 ?
yes (1)

Hello, I am checking results. What call was entered for CN(C)S(=O)(=O)c1ccc(-c2nc(C(Cl)Cl)nc3cc(-c4ccccc4)nn23)cc1 ?
no (0)

----------
// reported growth per item
Test system: PC-3 prostate
Assay: NCI-60 one-dose screen, 48 h (100 = growth as untreated, 0 = no growth, -100 = all killed)
Settings: 10 µM unless noted
The panel holds about 83,000 compounds, 20% with a hit somewhere; the sample as a whole holds those more often.
# unit: % | format: bare number

// solved cases for growth follow
1. O=C(CCl)Nc1ccc(NC(=O)c2cc(Cl)ccc2O)c(Cl)c1 : 87.1
2. CNC(=O)c1cc(N2CCc3cc(NC(=O)Nc4ccc(N5CCOCC5)c(C(F)(F)F)c4)ccc32)ccn1 : 7.98
3. O=C1Nc2ccc(F)cc2/C1=C\C(=O)c1ccc(NS(=O)(=O)c2ccccc2)cc1 : 92

Quick one: growth of C#Cc1nc(/C=C/C(=O)NO)cs1 ?
70.5

Quick one: growth of CS(=O)(=O)c1ccc(/C(=N/N=C(N)N)c2ccc(F)cc2)cc1 ?
73.9

Quick one: growth of Cc1ccc(S(=O)(=O)NCCCNc2nccc(-c3[nH]c(-c4ccccc4)nc3-c3ccc(F)c(O)c3)n2)cc1 ?
69.5

Quick one: growth of CN(C)S(=O)(=O)c1ccc(-c2nc(C(Cl)Cl)nc3cc(-c4ccccc4)nn23)cc1 ?
87.7

Quick one: growth of O=c1nc(Nc2ccc([N+](=O)[O-])cc2O)sc2ccccc12 ?
16.5

Quick one: growth of COc1ccc(C(C)=C(c2ccc(OCCN(C)C)cc2)c2ccc(OCCN(C)C)cc2)cc1 ?
1.05

Quick one: growth of C/C(=C(/C)C1CC1CCNC1CCC(NC(=O)OC(C)(C)C)CC1)c1ccccc1 (stereo not given) ?
63.8

----------
Tested on: HCC-2998 colon
Test: NCI-60 one-dose screen, 48 h (100 = growth as untreated, 0 = no growth, -100 = all killed)
Settings: 10 µM unless noted
The panel holds about 83,000 compounds, 20% with a hit somewhere; the sample as a whole holds those more often.
experimental endpoint: growth (%)
# unit: % | format: bare number

// solved cases for growth follow
1) CCc1cc(OC(=O)N2CCC(N3CCCCC3)CC2)ccc1Nc1cc(-c2ccc(-n3cccn3)cc2)[nH]n1 : 83.8
2) Cc1ccc(-c2cc3nc(C(Cl)Cl)nc(-c4ccc(S(=O)(=O)N(C)C)cc4)n3n2)cc1 : 91.7
3) CN1CCN(c2ccc(Nc3nc(NCCCNS(=O)(=O)c4cccc(F)c4)c4sccc4n3)cc2)CC1 : 37.9
4) Cc1ccc(/C=N/Nc2nc(Nc3ccccc3)nc(Nc3ccc(S(N)(=O)=O)cc3)n2)cc1 : 74.1
5) COc1ccc([C@H]2C(=O)N(c3cc(OC)c(OC)c(OC)c3)[C@@H]2c2ccc(OC)c(O)c2)cc1 : 13.3

Quick one: growth of O=C(CCCCCCN1CC(=O)N2[C@@H](c3cccs3)c3[nH]c4ccccc4c3C[C@H]2C1=O)NO ?
101

Quick one: growth of O=C1/C(=C/C=C/c2ccco2)SC(=S)N1Cc1ccccc1 ?
99.7

Quick one: growth of Oc1[nH]c2ccc(Cl)cc2c1N=Nc1nc(N=Nc2c(O)[nH]c3ccc(Cl)cc23)nc(N2CCOCC2)n1 ?
75.5

Quick one: growth of Cc1cc2nc3c4cc(C#N)ccc4n(CCN(C)C)c3nc2cc1C ?
-73

----------
// reported growth per item
Tested on: M14 melanoma
Assay: NCI-60 one-dose screen, 48 h (100 = growth as untreated, 0 = no growth, -100 = all killed)
Conditions: 10 µM unless noted
Compounds without any hit were thinned out: in the full panel of roughly 83,000, 20% have a hit.
# unit: % | format: bare number

// solved cases for growth follow
1) CN1CCN(CC#CCn2c3c(c4ccccc42)C[C@]2(C)[C@H]4CC=C5[C@@H]6CC(C)(C)CC[C@]6(C(=O)N6CCOCC6)CC[C@@]5(C)[C@]4(C)CC[C@H]2C3(C)C)CC1 : 87.7
2) O=C(CCCCCCNC(=O)C(O)(O)C(F)(F)F)Nc1ncc(-c2ccccc2)s1 : 14.3
3) CC1(C)CC[C@]23CC[C@]4(C)[C@H](CC[C@@H]5[C@@]6(C)CC[C@H](N)C(C)(C)[C@@H]6CC[C@]54C)[C@H]2[C@H]1OC3 : 82.8
4) CC(=O)c1cc(C(=O)N2c3ccccc3Sc3ccccc32)n2c1ccc1ccccc12 : 40.8
5) Cc1[nH]c(C(=O)Nc2ccc(C(=O)NCC3CCNCC3)cc2OC(C)C)c(Cl)c1Cl : 62.4
6) O=C1Nc2ccccc2/C1=N\c1nnc(-c2ccccc2)o1 : 95.9
7) Cc1ccc2c(n1)C(=O)C(Cl)=C(Nc1ccc(C)c(C)c1)C2=O : 42.5

Here is another molecule to look at.
Quick one: growth of CN(C)c1cccc2c(S(=O)(=O)Nc3cccc(-c4csc(NC(=O)CCCCCN5CCN(CCO)CC5)n4)c3)cccc12 ?
73.7
